This listing pairs molecules with measured logD.
Assay: Lipophilicity, log D of the compound at pH 7.4
Type: physicochemical
Conditions: buffer
Field format: numeric only.

CS(=O)(=O)N1C[C@H](C(=O)Nc2ccc3[nH]ncc3c2)[C@@H](C(=O)Nc2ccc(-n3ccccc3=O)cc2F)C1 0.5

Proceed to the following item.
For O=C(Nc1ccc(Cl)cc1)[C@H]1CN(S(=O)(=O)CC(F)(F)F)C[C@@H]1C(=O)Nc1ccc(-n2ccccc2=O)cc1F , what is its reported logD?
2.68

###

Assay: Lipophilicity, log D of the compound at pH 7.4
Format: physicochemical
Details: buffer
Use class 1 when the recorded logD is no lower than 2; use class 0 when it is lower.

Worked cases, answers included:
CC(=O)N1C[C@H](C(=O)Nc2ccc(Cl)cc2)[C@@H](C(=O)Nc2ccc(-n3ccccc3=O)cc2F)C1 class 0
COc1ccc(NC(=O)[C@H]2CN(S(C)(=O)=O)C[C@@H]2C(=O)Nc2ccc(-n3ccccc3=O)cc2F)cc1Cl class 0
O=C(Nc1ccc(Cl)cc1)[C@H]1CN(CCO)C[C@@H]1C(=O)Nc1ccc(-n2ccccc2=O)cc1F class 0
CCS(=O)(=O)N1C[C@H](C(=O)Nc2ccc(Cl)cn2)[C@@H](C(=O)Nc2ccc(-n3ccccc3=O)cc2F)C1 class 0

Reported logD reaches at least 2 for CCS(=O)(=O)N1C[C@H](C(=O)Nc2ccc(Cl)cc2)[C@@H](C(=O)Nc2ccc(-n3ccccc3=O)cc2F)C1 ?
class 1

Item: O=C(Nc1ccc(Cl)cn1)[C@H]1CN(CC(F)F)C[C@@H]1C(=O)Nc1ccc(-n2ccccc2=O)cc1F
class 1
